# Test description: Selectivity for MMP9 over MMP2
Result type: Ratio IC50
Output: the number by itself.

Req: Need Ratio IC50 of CC(=O)N1CCN([C@@H](CN(c2ccc(Oc3ccc(C(F)(F)F)cc3)cc2)S(C)(=O)=O)C(=O)NO)CC1 , thanks.
Resp: 1.8

Req: Also CS(=O)(=O)N(C[C@@H](C(=O)NO)N1CCS(=O)(=O)CC1)c1ccc(Oc2ccc(C(F)(F)F)cc2)cc1 ?
Resp: 2.8

Req: Also Cc1ccc(Oc2ccc(N(C[C@@H](NC(C)C)C(=O)NO)S(C)(=O)=O)cc2)cc1 ?
Resp: 5.7

Req: Also CS(=O)(=O)N(C[C@@H](C(=O)NO)N1CCOCC1)c1ccc(Oc2ccc(Cl)cc2)cc1 ?
Resp: 2.8

Req: Also C[C@@H]1CN([C@@H](CN(c2ccc(Oc3ccc(Cl)cc3)cc2)S(C)(=O)=O)C(=O)NO)C[C@H](C)O1 ?
Resp: 5.4

Req: Also CC(C)N(CCNC(=O)OCc1ccccc1)[C@@H](CN(c1ccc(Oc2ccc(C(F)(F)F)cc2)cc1)S(C)(=O)=O)C(=O)NO ?
Resp: 9

Req: Also CS(=O)(=O)N(C[C@@H](C(=O)NO)N1CCOCC1)c1ccc(Oc2ccc(C(F)(F)F)cc2)cc1 ?
Resp: 3.2

Req: Also Cc1ccc(Oc2ccc(N(C[C@H](NCc3ccncc3)C(=O)NO)S(C)(=O)=O)cc2)cc1 ?
Resp: 5.3

Req: Also COc1cccc(N[C@@H](CN(c2ccc(Oc3ccc(C)cc3)cc2)S(C)(=O)=O)C(=O)NO)c1 ?
Resp: 43.5

Req: Also Cc1ccc(Oc2ccc(N(C[C@H](NC3CCCC3)C(=O)NO)S(C)(=O)=O)cc2)cc1 ?
Resp: 5.9

Req: Also Cc1ccc(Oc2ccc(N(C[C@H](Nc3ccc(F)cc3)C(=O)NO)S(C)(=O)=O)cc2)cc1 ?
Resp: 49.2

Req: Also Cc1ccc(Oc2ccc(N(C[C@H](NCc3ccccn3)C(=O)NO)S(C)(=O)=O)cc2)cc1 ?
Resp: 3.6

Req: Also Cc1ccc(Oc2ccc(N(C[C@H](NCc3cccnc3)C(=O)NO)S(C)(=O)=O)cc2)cc1 ?
Resp: 6.1

Req: Also CS(=O)(=O)N(C[C@@H](C(=O)NO)N1CCC(O)CC1)c1ccc(Oc2ccc(C(F)(F)F)cc2)cc1 ?
Resp: 3

Req: Also Cc1ccc(Oc2ccc(N(C[C@H](Nc3ccccc3)C(=O)NO)S(C)(=O)=O)cc2)cc1 ?
Resp: 25

Req: Also C[C@@H]1CN([C@@H](CN(c2ccc(Oc3ccc(C(F)(F)F)cc3)cc2)S(C)(=O)=O)C(=O)NO)C[C@H](C)O1 ?
Resp: 5.1

Req: Also Cc1ccc(Oc2ccc(N(C[C@H](C(=O)NO)N3CCOCC3)S(C)(=O)=O)cc2)cc1 ?
Resp: 4.5

* * *

# Test description: Apparent elimination half life in rat at 0.5 mg/kg, iv
# Assay type: ADME, organism-based
# Set-up: dose 0.5 mg/kg, route intravenous
# Conditions used: in vivo, read-out: beta t1/2 (converted)
For each of the compounds below, state its half-life.

Req: Need half-life of Cc1ccc(Oc2ccc(N(C[C@@H](C(=O)NO)N3CCOCC3)S(C)(=O)=O)cc2)cc1 , thanks.
Resp: 360 min

Req: Also CS(=O)(=O)N(C[C@@H](C(=O)NO)N1CCOCC1)c1ccc(Oc2ccc(C(F)(F)F)cc2)cc1 ?
Resp: 12 min

Req: Also Cc1ccc(Oc2ccc(N(C[C@H](NC(C)C)C(=O)NO)S(C)(=O)=O)cc2)cc1 ?
Resp: 9.6 min

Req: Also Cc1ccc(Oc2ccc(N(C[C@H](Nc3cccc(F)c3)C(=O)NO)S(C)(=O)=O)cc2)cc1 ?
Resp: 36 min
